Procedure Details: recombinant barcode read abundance after kanamycin selection (control-corrected) (log10(CPM+1)); higher = more efficient recombination; sequences stand for … in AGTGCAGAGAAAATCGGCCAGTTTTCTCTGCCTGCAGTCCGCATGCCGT…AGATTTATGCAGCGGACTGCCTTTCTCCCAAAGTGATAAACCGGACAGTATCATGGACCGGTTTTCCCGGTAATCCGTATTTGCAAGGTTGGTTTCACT; site = the 11-nt target
Quick list: recombinant barcode read abundance (log10) per entry.
Endpoint Label: recombinant barcode read abundance (log10)

Item Sequence | Experimental Result
CTCTCGTCTTGGGTTCTAACCTGTTGCCT (site CTCTCGTCTAT) | 0.0858
CTGCTACCTTGGGTTCTAACCTGTTGCCT (site CCGCTACCTAG) | 0.386
TCGTTCCCTTGGGTTCTAACCTGTTGCTT (site TCGTTCCCTAA) | 0.105

* * *

Procedure Details: recombinant UMI read abundance after kanamycin selection (control-corrected) (log10(CPM+1)); higher = more efficient recombination; extreme values may be limits of the assay; sequences stand for … in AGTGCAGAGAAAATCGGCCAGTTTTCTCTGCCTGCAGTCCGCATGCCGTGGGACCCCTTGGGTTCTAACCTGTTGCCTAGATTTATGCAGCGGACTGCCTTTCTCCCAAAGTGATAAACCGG…AGGTTGGTTTCACT; site = the 11-nt donor
Measured recombinant UMI read abundance (log10) values are reported for all entries that follow.

Item Sequence | recombinant UMI read abundance (log10)
ACCCATCCATGGACCGGTTTTCCCGGTAATCCGTATTTGAC (site ACGCATCCTGT) | 0
CGGTTTACATGGACCGGTTTTCCCGGTAATCCGTATTTGCT (site CTGTTTACTAG) | 1.21
GATACTGCATGGACCGGTTTTCCCGGTAATCCGTATTTGTC (site GATACTGCTGA) | 1.28

* * *

Procedure Details: recombinant UMI read abundance after kanamycin selection (control-corrected) (log10(CPM+1)); higher = more efficient recombination; extreme values may be limits of the assay; sequences stand for … in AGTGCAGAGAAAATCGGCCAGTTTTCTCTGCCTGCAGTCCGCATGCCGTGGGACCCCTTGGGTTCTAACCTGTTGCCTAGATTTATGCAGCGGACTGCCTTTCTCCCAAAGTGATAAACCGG…AGGTTGGTTTCACT; site = the 11-nt donor

Item Sequence | recombinant UMI read abundance (log10)
CCATTCCCATGGACCGGTTTTCCCGGTAATCCGTATTTGCT (site CAATTCCCTAG) | 0
CAATGCTCATGGACCGGTTTTCCCGGTAATCCGTATTTGAT (site CAATGCTCTAT) | 2.87
GTATTATCATGGACCGGTTTTCCCGGTAATCCGTATTTGTG (site GTATTATCTCA) | 2.22
TAGCCATCATGGACCGGTTTTCCCGGTAATCCGTATTTGGT (site TAGCCATCTAC) | 0.74
TATCTCACATGGACCGGTTTTCCCGGTAATCCGTATTTGTC (site TATCTCACTGA) | 1.44
AAGCACGCATGGACCGGTTTTCCCGGTAATCCGTATTTGCG (site AAGCACGCTCA) | 0.289
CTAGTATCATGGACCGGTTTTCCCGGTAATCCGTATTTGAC (site CTAGTTTCTGG) | 0
GAGCTTACATGGACCGGTTTTCCCGGTAATCCGTATTTGAT (site GAGCTTACTAT) | 1.77

* * *

Procedure Details: recombinant barcode read abundance after kanamycin selection (control-corrected) (log10(CPM+1)); higher = more efficient recombination; sequences stand for … in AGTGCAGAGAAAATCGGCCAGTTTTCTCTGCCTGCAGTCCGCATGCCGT…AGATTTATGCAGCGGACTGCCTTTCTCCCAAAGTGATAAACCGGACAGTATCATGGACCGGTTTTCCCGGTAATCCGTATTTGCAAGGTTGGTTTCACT; site = the 11-nt target
Reported recombinant barcode read abundance (log10) by item:
Endpoint Label: recombinant barcode read abundance (log10)

Item Sequence | Experimental Result
ACAAAGACTTGGGTTCTAACCTGTTGCCT (site ACAAAGACTAG) | 0.847
AGGAAGACTTGGGTTCTAACCTGTTGCCA (site AGGGAGACTTG) | 0.239
CAGTGAACTTGGGTTCTAACCTGTTGCCT (site CTGTGAACTAG) | 0.0273
TGTGAGTCTTGGGTTCTAACCTGTTGCGT (site TGTGAGTCTAT) | 1.42
GACCGTCCTTGGGTTCTAACCTGTTGCCA (site GACCGTCCTTG) | 0.761
CTGTCTCCTTGGGTTCTAACCTGTTGCCT (site CTGTCTCCTAG) | 1.29
GAAGTAACTTGGGTTCTAACCTGTTGCCT (site GAGGTAACTAG) | 0.346
GTCACAGCTTGGGTTCTAACCTGTTGCCT (site GTCACAGCTAG) | 1.23
AGTCACACTTGGGTTCTAACCTGTTGCAG (site TTGTGAGCTGC) | 0.153
TCCAAACCTTGGGTTCTAACCTGTTGCGG (site TCCAACACTCC) | 0.00629
ACAAGTCCTTGGGTTCTAACCTGTTGCGG (site ACAAGTCCTCC) | 1.74
CGTGGTCCTTGGGTTCTAACCTGTTGCAT (site CGTGGTCCTAC) | 0.809
ATGTCGTCTTGGGTTCTAACCTGTTGCCT (site ACGTCGTCTAG) | 0.296
AGGGATCCTTGGGTTCTAACCTGTTGCGT (site ATGGATCCTAC) | 1.29
AGGGTCACTTGGGTTCTAACCTGTTGCCT (site AGGGTCACTAG) | 2.23
AATCTCCCTTGGGTTCTAACCTGTTGCCT (site AATCTCCCTAG) | 1.07
GACCAGCCTTGGGTTCTAACCTGTTGCCT (site GACCAGCCTAA) | 0.277

* * *

# maps each entry to its recombinant barcode read abundance (log10)
Procedure Details: recombinant barcode read abundance after kanamycin selection (control-corrected) (log10(CPM+1)); higher = more efficient recombination; sequences stand for … in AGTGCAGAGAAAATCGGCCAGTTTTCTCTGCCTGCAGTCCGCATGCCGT…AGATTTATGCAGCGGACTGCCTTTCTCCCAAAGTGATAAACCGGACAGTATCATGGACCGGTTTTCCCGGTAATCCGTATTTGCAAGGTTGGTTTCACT; site = the 11-nt target
Endpoint Label: recombinant barcode read abundance (log10)

Item Sequence | Experimental Result
GTTCAGACTTGGGTTCTAACCTGTTGCCT (site GTGCAGACTAG) | 0.0632
AAAGTACCTTGGGTTCTAACCTGTTGCCT (site AAAGTACCTAG) | 2
GCCAAGCCTTGGGTTCTAACCTGTTGCTG (site GCCAAGCCTCA) | 0.257
TATTCTACTTGGGTTCTAACCTGTTGCGT (site TATTCTACTAC) | 0.0342
AGTATGTCTTGGGTTCTAACCTGTTGCCT (site TGTATGTCTAG) | 0.116
ACGACTCCTTGGGTTCTAACCTGTTGCTG (site ACGTCTCCTCA) | 0.0836
TTGTACCCTTGGGTTCTAACCTGTTGCCT (site TTGTACCCTAG) | 1.45
GATAACTCTTGGGTTCTAACCTGTTGCCT (site AATAACTCTAG) | 0.802
CGCCGAACTTGGGTTCTAACCTGTTGCCT (site TGCCGAACTAG) | 0.0386
AGCGCTCCTTGGGTTCTAACCTGTTGCCT (site ACCGCTCCTAG) | 0.305
GTGAGTCCTTGGGTTCTAACCTGTTGCGT (site GTGAGTCCTAC) | 2.61
AGGAAGACTTGGGTTCTAACCTGTTGCCA (site AGGAAGACTTG) | 0.948
GAACGACCTTGGGTTCTAACCTGTTGCTT (site GAACGACCTCA) | 0.0114
ACGAGTCCTTGGGTTCTAACCTGTTGCTT (site ACGAGTCCTAA) | 0.606
TGCCTAGCTTGGGTTCTAACCTGTTGCCT (site TGCCTAGCTAG) | 0.24
TACAGACCTTGGGTTCTAACCTGTTGCAG (site ACGGAGTCTTA) | 0.128
ACCTTGCCTTGGGTTCTAACCTGTTGCCT (site ACGTTGCCTAG) | 0.875
GGTGCCTCTTGGGTTCTAACCTGTTGCAT (site GGTGCCTCTAT) | 1.46
TCAGGAGCTTGGGTTCTAACCTGTTGCTA (site CATATGACTAG) | 0.288
AGGACCACTTGGGTTCTAACCTGTTGCCA (site AGGACCACTTG) | 0.868
GGTAATACTTGGGTTCTAACCTGTTGCAT (site AACGTACCTTG) | 0.191
ATGCACCCTTGGGTTCTAACCTGTTGCCT (site ATGCGCCCTAG) | 0.977
TTGATTACTTGGGTTCTAACCTGTTGCCA (site TTGATTACTTG) | 0.0149
CACTTCCCTTGGGTTCTAACCTGTTGCGT (site CACTTCCCTAT) | 1.5
GGCTACCCTTGGGTTCTAACCTGTTGCAA (site CTGGTATCTAA) | 0.148
CTCTTCCCTTGGGTTCTAACCTGTTGCTT (site CTCTTCCCTAA) | 0.594
AACAGGTCTTGGGTTCTAACCTGTTGCCT (site AACAGGTCTAG) | 0.902
GACCTCCCTTGGGTTCTAACCTGTTGCTG (site GACCTACCTCT) | 0.219
